Each recorded value in this set is attributed to the supplement of paper PMC11061612.

Test system: CAL-62 (Thyroid Gland Carcinoma)
Experiment: combination Emax (second highest fraction inhibited in the dose matrix, 72 h); higher = more inhibition; extreme values may be limits of the assay
What combination Emax was measured for each of the following?
Numbers only.

{"columns": ["molecule", "recorded-measurement"],
 "data": [
  ["Cc1c2c(nn1C)CSCc1cc(n(C)n1)CSc1cc(c3ccccc3c1)OCCCc1c(C(=O)O)n(C)c3c-2c(Cl)ccc13 [AZD5991] + C=CCn1c(=O)c2cnc(Nc3ccc(N4CCN(C)CC4)cc3)nc2n1-c1cccc(C(C)(C)O)n1 [AZD1775] (first compound max 1 µM, partner max 1 µM)", 0.766],
  ["NC1(C(=O)N[C@@H](CCO)c2ccc(Cl)cc2)CCN(c2ncnc3[nH]ccc23)CC1 [Capivasertib] + C[C@@H]1COCCN1C2=NC(=NC(=C2)C3(CC3)[S@](=N)(=O)C)C4=C5C=CNC5=NC=C4 [AZD6738] (first compound max 10 µM, 7x7, partner max 10 µM)", 0.784],
  ["Cc1c2c(nn1C)CSCc1cc(n(C)n1)CSc1cc(c3ccccc3c1)OCCCc1c(C(=O)O)n(C)c3c-2c(Cl)ccc13 [AZD5991] + Cc1cc2ncnn2cc1Nc1ncc2c(n1)n(C1CCOCC1)c(=O)n2C [AZD7648] (first compound max 1 µM, 7x7, partner max 10 µM)", 0.439]
]}

Shift focus to the following entry.
Can you look up the measured combination Emax of C=CCn1c(=O)c2cnc(Nc3ccc(N4CCN(C)CC4)cc3)nc2n1-c1cccc(C(C)(C)O)n1 [AZD1775] + C1CN(CCC1(C(=O)N[C@@H](CCO)C2=CC=C(C=C2)Cl)N)C3=NC=NC4=C3C=CN4 [Capivasertib] (first compound max 3 µM, partner max 3 µM) for me?
0.868

* * *

Test system: PANC-03-27 (Pancreatic Carcinoma)
Experiment: Bliss excess, mean over the matrix (fraction); higher = more synergy
Exercise: state measured Bliss excess for each of the compounds provided.
Numbers only.

{"columns": ["compound", "Bliss excess"],
 "data": [
  ["Cc1cc2ncnn2cc1Nc1ncc2c(n1)n(C1CCOCC1)c(=O)n2C [AZD7648] + CCN(CCO)CCCOc1ccc2c(Nc3cc(CC(=O)Nc4cccc(F)c4)[nH]n3)ncnc2c1 [AZD2811] (first compound max 10 µM, 7x7, partner max 1 µM)", -0.0255],
  ["CS(=O)(=O)CCNCc1ccc(-c2ccc3ncnc(Nc4ccc(OCc5cccc(F)c5)c(Cl)c4)c3c2)o1 [Lapatinib] + NC1(c2ccc(-c3nc4ccn5c(=O)[nH]nc5c4cc3-c3ccccc3)cc2)CCC1 [MK-2206] (first compound max 10 µM, 7x7, partner max 10 µM)", -0.0064],
  ["CC1(C)CCC(CN2CCN(c3ccc(C(=O)NS(=O)(=O)c4ccc(NCC5CCOCC5)c([N+](=O)[O-])c4)c(Oc4cnc5[nH]ccc5c4)c3)CC2)=C(c2ccc(Cl)cc2)C1 [Venetoclax] + C[C@@H]1COCCN1C2=NC(=NC(=C2)C3(CC3)[S@](=N)(=O)C)C4=C5C=CNC5=NC=C4 [AZD6738] (first compound max 1 µM, 7x7, partner max 10 µM)", -0.0556],
  ["COc1cccc(OCCCN)c1-c1cc(Nc2cnc(C#N)cn2)n[nH]1 [Prexasertib] + C[C@@H]1COCCN1C2=NC(=NC(=C2)C3(CC3)[S@](=N)(=O)C)C4=C5C=CNC5=NC=C4 [AZD6738] (first compound max 1 µM, 7x7, partner max 10 µM)", -0.0577],
  ["CCc1c2c(nc3ccc(O)cc13)-c1cc3c(c(=O)n1C2)COC(=O)[C@]3(O)CC [SN-38] + O=C(c1cc(Cc2n[nH]c(=O)c3ccccc23)ccc1F)N1CCN(C(=O)C2CC2)CC1 [Olaparib] (first compound max 0.3 µM, 7x7, partner max 10 µM)", 0.0498]
]}

I would be grateful if you could share the reported Bliss excess for Cn1cnc2c(F)c(Nc3ccc(Br)cc3Cl)c(C(=O)NOCCO)cc21 [Selumetinib] + C[C@@H]1COCCN1C2=NC(=NC(=C2)C3(CC3)[S@](=N)(=O)C)C4=C5C=CNC5=NC=C4 [AZD6738] (first compound max 10 µM, 7x7, partner max 10 µM) .
-0.0117

* * *

Please go through the items and note down their combination Emax.
Test system: REH (B-Lymphoblastic Leukemia)
Experiment: combination Emax (second highest fraction inhibited in the dose matrix, 72 h); higher = more inhibition; extreme values may be limits of the assay
One number for each entry.

Examples with their reported combination Emax follow.
{"columns": ["compound", "measured-property", "recorded-measurement"],
 "data": [
  ["C[C@@H]1COCCN1c1cc(C2([S@](C)(=N)=O)CC2)nc(-c2ccnc3[nH]ccc23)n1 [AZD6738] + C1CC(C1)(C(=O)[O-])C(=O)[O-].N.N.[Pt+2] [Carboplatin] (first compound max 10 µM, 7x7, partner max 10 µM)", "combination Emax", 0.629],
  ["C[C@@H](c1ccc2nccn2c1)n1nnc2ncc(-c3cnn(C)c3)nc21 [Savolitinib] + CC1(C)CCC(CN2CCN(c3ccc(C(=O)NS(=O)(=O)c4ccc(NCC5CCOCC5)c([N+](=O)[O-])c4)c(Oc4cnc5[nH]ccc5c4)c3)CC2)=C(c2ccc(Cl)cc2)C1 [Venetoclax] (first compound max 1 µM, 7x7, partner max 1 µM)", "combination Emax", 0.608],
  ["Cc1c2c(nn1C)CSCc1cc(n(C)n1)CSc1cc(c3ccccc3c1)OCCCc1c(C(=O)O)n(C)c3c-2c(Cl)ccc13 [AZD5991] + CC(=O)O[C@H]1C(=O)[C@@]2(C)[C@H]([C@H](OC(=O)c3ccccc3)[C@]3(O)C[C@H](OC(=O)[C@H](O)[C@@H](NC(=O)c4ccccc4)c4ccccc4)C(C)=C1C3(C)C)[C@]1(OC(C)=O)CO[C@@H]1C[C@@H]2O [Paclitaxel] (first compound max 1 µM, 7x7, partner max 3 µM)", "combination Emax", 1]
]}

Now look at this one.
Which combination Emax reading was recorded for the compound CN(CCO)CC[C@H](CSc1ccccc1)Nc1ccc(S(=O)(=O)NC(=O)c2ccc(N3CCC([C@@H](O)c4ccccc4-c4ccc(Cl)cc4)CC3)cc2)cc1S(=O)(=O)C(F)(F)F [AZD4320] + CS(=O)(=O)CCNCc1ccc(-c2ccc3ncnc(Nc4ccc(OCc5cccc(F)c5)c(Cl)c4)c3c2)o1 [Lapatinib] (first compound max 1 µM, 7x7, partner max 10 µM) ?
1

* * *

Please respond with reported combination Emax for every item in the list.
Test system: LK-2 (Squamous Cell Lung Carcinoma)
Test: combination Emax (second highest fraction inhibited in the dose matrix, 72 h); higher = more inhibition; extreme values may be limits of the assay
Give bare numbers.

{"columns": ["compound", "combination Emax"],
 "data": [
  ["NC1(C(=O)N[C@@H](CCO)c2ccc(Cl)cc2)CCN(c2ncnc3[nH]ccc23)CC1 [Capivasertib] + Cn1cnc2c(F)c(Nc3ccc(Br)cc3Cl)c(C(=O)NOCCO)cc21 [Selumetinib] (first compound max 10 µM, 7x7, partner max 10 µM)", 0.467]
]}

As a next step, examine the compound that follows.
Query: combination Emax; subject: CS(=O)(=O)CCNCc1ccc(-c2ccc3ncnc(Nc4ccc(OCc5cccc(F)c5)c(Cl)c4)c3c2)o1 [Lapatinib] + NC1(c2ccc(-c3nc4ccn5c(=O)[nH]nc5c4cc3-c3ccccc3)cc2)CCC1 [MK-2206] (first compound max 10 µM, 7x7, partner max 10 µM)
0.892

* * *

Tested on: PC-3_[JPC-3] (Lung Adenocarcinoma)
Assay: Bliss excess, mean over the matrix (fraction); higher = more synergy
measured-property: Bliss excess
One number for each entry.

Take a look at these entries with their results.
{"columns": ["compound", "Bliss excess"],
 "data": [
  ["C[C@@H]1COCCN1c1cc(C2([S@](C)(=N)=O)CC2)nc(-c2ccnc3[nH]ccc23)n1 [AZD6738] + C1CC(C1)(C(=O)[O-])C(=O)[O-].N.N.[Pt+2] [Carboplatin] (first compound max 10 µM, 7x7, partner max 10 µM)", -0.0326],
  ["Cc1c2c(nn1C)CSCc1cc(n(C)n1)CSc1cc(c3ccccc3c1)OCCCc1c(C(=O)O)n(C)c3c-2c(Cl)ccc13 [AZD5991] + Cn1cnc2c(F)c(Nc3ccc(Br)cc3Cl)c(C(=O)NOCCO)cc21 [Selumetinib] (first compound max 1 µM, 7x7, partner max 3 µM)", -0.0477],
  ["CC1(C)CCC(CN2CCN(c3ccc(C(=O)NS(=O)(=O)c4ccc(NCC5CCOCC5)c([N+](=O)[O-])c4)c(Oc4cnc5[nH]ccc5c4)c3)CC2)=C(c2ccc(Cl)cc2)C1 [Venetoclax] + CCN(CCO)CCCOc1ccc2c(Nc3cc(CC(=O)Nc4cccc(F)c4)[nH]n3)ncnc2c1 [AZD2811] (first compound max 1 µM, 7x7, partner max 1 µM)", -0.095],
  ["COc1nnc2ccc(N3CCC(c4ccc(OCCN5CCN(C)C(=O)[C@H]5C)cc4)CC3)nn12 [AZD5153] + CC1(C)CCC(CN2CCN(c3ccc(C(=O)NS(=O)(=O)c4ccc(NCC5CCOCC5)c([N+](=O)[O-])c4)c(Oc4cnc5[nH]ccc5c4)c3)CC2)=C(c2ccc(Cl)cc2)C1 [Venetoclax] (first compound max 1 µM, 7x7, partner max 1 µM)", -0.111]
]}

Find the recorded Bliss excess belonging to COc1nnc2ccc(N3CCC(c4ccc(OCCN5CCN(C)C(=O)[C@H]5C)cc4)CC3)nn12 [AZD5153] + C=CCn1c(=O)c2cnc(Nc3ccc(N4CCN(C)CC4)cc3)nc2n1-c1cccc(C(C)(C)O)n1 [AZD1775] (first compound max 1 µM, partner max 1 µM) and report it.
-0.06
